Field: % release of Compound (I) from the respective Salts. Provide a value for each of the compounds that follow.
# ASSAY_NOTES: In-vitro intrinsic dissolution of 200 mg pellets of API without excipients
# Assay type: physicochemical
# ASSAY_CONTEXT: 60 min; Table 8; 200 mg pellet, 0.01N HCl, 37° C., paddle 75 rpm
# Protocol: A tableting mixture (200 mg) comprising solely salts of (((1-(6-amino-9H-purin-9-yl)propan-2-yloxy)methyl) (phenoxy) phosphoryloxy) methyl pivalate-prepared according to any one of the examples 1 to 10 (i.e. with no excipients) was prepared and compressed to a pellet using an automatic KBR press operating at a compression pressure of 2 tones for 2 minutes. […] Note: Aliquots were analysed on HPLC. […]
Answers are plain numbers, in %.

Observe how each entry below is paired with its result.
| COMPOUND | MEASURED_RESULT |
| --- | --- |
| CC(Cn1cnc2c(N)ncnc21)OCP(=O)(OCOC(=O)C(C)(C)C)Oc1ccccc1.O=P(O)(O)O (stereo not drawn) [Phosphate] | 105 |
| CC(Cn1cnc2c(N)ncnc21)OCP(=O)(OCOC(=O)C(C)(C)C)Oc1ccccc1.O=C(O)CCC(=O)O (stereo not drawn) [Succinate] | 30 |
| CC(Cn1cnc2c(N)ncnc21)OCP(=O)(OCOC(=O)C(C)(C)C)Oc1ccccc1.O=C(O)C(=O)O (stereo not drawn) [Oxalate] | 15 |
| CC(Cn1cnc2c(N)ncnc21)OCP(=O)(OCOC(=O)C(C)(C)C)Oc1ccccc1.O=C(O)C(O)C(O)C(=O)O (stereo not drawn) [Tartrate] | 24 |
| CC(Cn1cnc2c(N)ncnc21)OCP(=O)(OCOC(=O)C(C)(C)C)Oc1ccccc1.O=C(O)CC(O)(CC(=O)O)C(=O)O (stereo not drawn) [Citrate] | 42 |

Turning now to a further record.
Kindly note the recorded % release of Compound (I) from the respective Salts for CC(Cn1cnc2c(N)ncnc21)OCP(=O)(OCOC(=O)C(C)(C)C)Oc1ccccc1.O=C(O)/C=C/C(=O)O (stereo not drawn) [Fumarate] , which is 24
